# protocol-notes: blockers of DNA damage checkpoint Chk1 activation – imaging, HeLa, hydroxyurea, phospho-Chk1 nuclear intensity, primary screen (AID 1187); further: test concentration not given here
# applied-conditions: hydroxyurea-induced phospho-Chk1 immunofluorescence imaging, higher = more signal
Provide the recorded z-score for the entries that follow.
Enter the number alone.

Prompt: Look up z-score for this compound: C=CCNC(=O)[C@@H]1[C@H]2C(=O)O[C@H](c3ccccc3)[C@H](c3ccccc3)N2[C@H](c2ccccc2OCCO)[C@@]12C(=O)N(C(=O)OCCOC)c1ccc(C#CC3(O)CCCCCC3)cc12
Completion: 0.294

Prompt: I would be grateful if you could share the reported z-score for C=CCNC(=O)[C@H]1[C@@H]2C(=O)O[C@@H](c3ccccc3)[C@@H](c3ccccc3)N2[C@@H](c2ccccc2OCCO)[C@]12C(=O)N(C(=O)OCCOC)c1ccc(C#CC3(O)CCCCCC3)cc12 .
Completion: -0.428

Prompt: # get_value(readout='z-score', item= CC(C)[Si]1(C(C)C)OCc2cc(C3CC3)nc(-c3ccc(Oc4ccccc4)cc3)c21 )
Completion: -0.358

Prompt: Endpoint output: z-score of COCCOC(=O)N1C(=O)[C@@]2(c3cc(C#CCC(C(=O)OC)C(=O)OC)ccc31)[C@H](c1ccc(OCCO)cc1)N1[C@H](c3ccccc3)[C@H](c3ccccc3)OC(=O)[C@H]1[C@@H]2C(=O)N1CCc2cc(OC)c(OC)cc2C1 . Value?
Completion: 0.246

Prompt: Which value of z-score has been reported for CC(C)C(CO)N1C(=O)[C@@H]2C3C(=O)OCCC/C=C\[C@H]3OC23C=CCN(c2ccc4ccccc4c2)C(=O)[C@@H]13 (stereo partly specified) in the records?
Completion: 0.516

Prompt: Sample COc1ccc([Si](C)(C)[C@@H]2[C@@H](CC(=O)N(CCO)Cc3ccccc3)O[C@]3(C(=O)N(Cc4cccc(N5CCCCC5=O)c4)c4ccccc43)[C@H]2C)cc1 — what was its z-score?
Completion: 0.797
